- tested.system: SIRT2 (Homo sapiens)
- assay: SIRT-Glo enzyme inhibition assay, SIRT2
- condition.info: SIRT2 IC50
log10 IC50 by entry:
# log10 transformed; quantity=IC50; unit=µM

These solved cases illustrate the format of a correct answer.
compound | parameter | recorded.result
O=C(NCCO)C(Cc1c(O)ccc2cc(Br)ccc12)C(=O)c1ccc(C(F)(F)F)cc1 (centres unmarked) [Compound 49] | log10 IC50 | -0.57
NC(=O)C(Cc1c(O)ccc2cc(Br)ccc12)C(=O)c1cccc(C(F)(F)F)c1 (centres unmarked) [Compound 21] | log10 IC50 | 1.10
CNC(=O)CCNC(=O)C(Cc1c(O)ccc2cc(Br)ccc12)C(=O)c1ccc(Cl)cc1 (centres unmarked) [Compound 54] | log10 IC50 | -0.23
CNC(=O)C(Cc1c(O)ccc2cc(Br)ccc12)C(=O)c1ccc(C(F)(F)F)cc1 (centres unmarked) [Compound 33] | log10 IC50 | -0.23

Prompt line: Give log10 IC50 for the following compound: NC(=O)C(Cc1c(O)ccc2cc(Br)ccc12)C(=O)c1cccc(Br)c1 (centres unmarked) [Compound 23]
Response line: 0.95

Prompt line: Give log10 IC50 for the following compound: NC(=O)CCNC(=O)C(Cc1c(O)ccc2cc(Br)ccc12)C(=O)c1ccc(Cl)cc1 (centres unmarked) [Compound 50]
Response line: -0.19

Prompt line: Give log10 IC50 for the following compound: NC(=O)C(Cc1c(O)ccc2cc(Br)ccc12)C(=O)c1ccc(C(F)(F)F)cc1 (centres unmarked) [Compound 20]
Response line: 0.28

Prompt line: Give log10 IC50 for the following compound: NC(=O)CCNC(=O)C(Cc1c(O)ccc2cc(Br)ccc12)C(=O)c1cccc(C(F)(F)F)c1 (centres unmarked) [Compound 53]
Response line: 0.20

* * *

- Test system: Raji (Burkitt lymphoma) cells
- assay: Cell viability (CellTiter-Glo), Raji
- Type: cell-based
- condition.info: Homo sapiens, 72 h, cellular ATP, read-out: Raji LC50
CC50 by entry:
Your answer is read as µM, so omit the unit and give the number.

compound | tested.system | CC50 / µM
CNC(=O)C(Cc1c(O)ccc2cc(Br)ccc12)C(=O)c1ccc(C(F)(F)F)cc1 (centres unmarked) | Raji (Burkitt lymphoma) cells | 18.5
CNC(=O)C(Cc1c(O)ccc2cc(Br)ccc12)C(=O)c1ccc(Br)cc1 (centres unmarked) | Raji (Burkitt lymphoma) cells | 9.1
CNC(=O)CCNC(=O)C(Cc1c(O)ccc2cc(Br)ccc12)C(=O)c1ccc(C(F)(F)F)cc1 (centres unmarked) | Raji (Burkitt lymphoma) cells | 11.9
O=C(NCCO)C(Cc1c(O)ccc2cc(Br)ccc12)C(=O)c1ccc(Cl)cc1 (centres unmarked) | Raji (Burkitt lymphoma) cells | 20.2

Prompt line: Give CC50 for the following compound: CNC(=O)CCNC(=O)C(Cc1c(O)ccc2cc(Br)ccc12)C(=O)c1ccc(Cl)cc1 (centres unmarked)
Response line: 18.5

* * *

- Tested on: U-251 glioblastoma multiforme cells
- assay: Cell viability (CellTiter-Glo), U-251
- Type: cell-based
- condition.info: Homo sapiens, cellular ATP, read-out: U251 LC50
CC50 by entry:
Your answer is read as µM, so omit the unit and give the number.

These solved cases illustrate the format of a correct answer.
compound | endpoint.unit | CC50
NC(=O)CCNC(=O)C(Cc1c(O)ccc2cc(Br)ccc12)C(=O)c1ccc(Br)cc1 (centres unmarked) [Compound 51] | µM | 25.9
CNC(=O)CCNC(=O)C(Cc1c(O)ccc2cc(Br)ccc12)C(=O)c1ccc(Cl)cc1 (centres unmarked) [Compound 54] | µM | 17.3
O=C(NCCO)C(Cc1c(O)ccc2cc(Br)ccc12)C(=O)c1ccc(C(F)(F)F)cc1 (centres unmarked) [Compound 49] | µM | 15.7

Prompt line: Give CC50 for the following compound: CNC(=O)CCNC(=O)C(Cc1c(O)ccc2cc(Br)ccc12)C(=O)c1ccc(C(F)(F)F)cc1 (centres unmarked) [Compound 55]
Response line: 21.1

Prompt line: Give CC50 for the following compound: O=C(NCCO)C(Cc1c(O)ccc2cc(Br)ccc12)C(=O)c1ccc(Br)cc1 (centres unmarked) [Compound 48]
Response line: 15.8

* * *

- tested.system: SIRT2 (Homo sapiens, UniProt Q8IXJ6)
- assay: SIRT-Glo enzyme inhibition assay, SIRT2
- condition.info: read-out: SIRT2 percentage inhibition at 50 µM compound, 50 µM compound
parameter: inhibition at 50 µM (%)
Your answer is read as %, so omit the unit and give the number.

These solved cases illustrate the format of a correct answer.
compound | endpoint.unit | inhibition at 50 µM
NC(=O)CCNC(=O)C(Cc1c(O)ccc2cc(Br)ccc12)C(=O)c1ccc(Cl)cc1 (stereo not drawn) | % | 99
NC(=O)C(Cc1c(O)ccc2cc(Br)ccc12)C(=O)c1ccccc1 (stereo not drawn) | % | 57
O=C(NCCO)C(Cc1c(O)ccc2cc(Br)ccc12)C(=O)c1ccc(Br)cc1 (stereo not drawn) | % | 96
NC(=O)C(Cc1c(O)ccc2cc(Br)ccc12)C(=O)c1cccc(C(F)(F)F)c1 (stereo not drawn) | % | 89
NC(=O)C(Cc1c(O)c(Br)cc2ccccc12)C(=O)c1cccc(Br)c1 (stereo not drawn) | % | 37

Prompt line: Give inhibition at 50 µM for the following compound: O=C(NCCCO)C(Cc1c(O)ccc2cc(Br)ccc12)C(=O)c1cccc(Br)c1 (stereo not drawn)
Response line: 86

Prompt line: Give inhibition at 50 µM for the following compound: O=C(NCCO)C(Cc1c(O)ccc2cc(Br)ccc12)C(=O)c1ccc(Cl)cc1 (stereo not drawn)
Response line: 98

Prompt line: Give inhibition at 50 µM for the following compound: Cc1cccc(C(=O)C(Cc2c(O)ccc3cc(Br)ccc23)C(N)=O)c1 (stereo not drawn)
Response line: 70

* * *

inhibition at 50 µM by entry:
- tested.system: SIRT2 (Homo sapiens, UniProt Q8IXJ6)
- Sequence (Q8IXJ6 1-389): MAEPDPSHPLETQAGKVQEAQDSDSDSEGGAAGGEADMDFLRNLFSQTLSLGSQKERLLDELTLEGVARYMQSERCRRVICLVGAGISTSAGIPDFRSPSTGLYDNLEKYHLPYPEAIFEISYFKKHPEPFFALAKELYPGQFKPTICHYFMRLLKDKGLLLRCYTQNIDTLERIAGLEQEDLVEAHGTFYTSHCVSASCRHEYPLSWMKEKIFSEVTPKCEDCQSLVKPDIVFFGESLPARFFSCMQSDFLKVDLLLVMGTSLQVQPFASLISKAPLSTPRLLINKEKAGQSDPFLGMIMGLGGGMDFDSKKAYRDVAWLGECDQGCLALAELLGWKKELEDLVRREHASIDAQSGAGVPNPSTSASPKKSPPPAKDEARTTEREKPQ
- assay: SIRT-Glo enzyme inhibition assay, SIRT2
- condition.info: read-out: SIRT2 percentage inhibition at 50 µM compound, 50 µM compound
Your answer is read as %, so omit the unit and give the number.

These solved cases illustrate the format of a correct answer.
compound | tested.system | parameter | recorded.result
NC(=O)C(Cc1c(O)ccc2cc(Br)ccc12)C(=O)c1ccc(Br)cc1 (stereo not shown) [Compound 22] | SIRT2 (Homo sapiens, UniProt Q8IXJ6) | inhibition at 50 µM | 93
NC(=O)C(Cc1c(O)ccc2cc(Br)ccc12)C(=O)c1ccc(C(F)(F)F)cc1 (stereo not shown) [Compound 20] | SIRT2 (Homo sapiens, UniProt Q8IXJ6) | inhibition at 50 µM | 100
O=C(NCc1cccnc1)C(Cc1c(O)ccc2cc(Br)ccc12)C(=O)c1cccc(Br)c1 (stereo not shown) [Compound 42] | SIRT2 (Homo sapiens, UniProt Q8IXJ6) | inhibition at 50 µM | 6

Prompt line: Give inhibition at 50 µM for the following compound: CNC(=O)C(Cc1c(O)ccc2cc(Br)ccc12)C(=O)c1ccc(Br)cc1 (stereo not shown) [Compound 56]
Response line: 95

Prompt line: Give inhibition at 50 µM for the following compound: NC(=O)C(Cc1c(O)ccc2cc(Br)ccc12)C(=O)c1ccc(Cl)cc1 (stereo not shown) [Compound 19]
Response line: 95

Prompt line: Give inhibition at 50 µM for the following compound: COCCNC(=O)C(Cc1c(O)ccc2cc(Br)ccc12)C(=O)c1cccc(Br)c1 (stereo not shown) [Compound 41]
Response line: 53

* * *

inhibition at 50 µM by entry:
- tested.system: SIRT2 (Homo sapiens)
- assay: SIRT-Glo enzyme inhibition assay, SIRT2
- condition.info: read-out: SIRT2 percentage inhibition at 50 µM compound, 50 µM compound
Your answer is read as %, so omit the unit and give the number.

These solved cases illustrate the format of a correct answer.
compound | inhibition at 50 µM [%]
NC(=O)C(Cc1c(O)ccc2ccccc12)C(=O)c1cccc(Br)c1 (stereo not shown) | 14
Cc1ccccc1C(=O)C(Cc1c(O)ccc2cc(Br)ccc12)C(N)=O (stereo not shown) | 3
Cc1ccc(C(=O)C(Cc2c(O)ccc3cc(Br)ccc23)C(N)=O)cc1 (stereo not shown) | 89

Prompt line: Give inhibition at 50 µM for the following compound: NC(=O)CCNC(=O)C(Cc1c(O)ccc2cc(Br)ccc12)C(=O)c1cccc(C(F)(F)F)c1 (stereo not shown)
Response line: 91

Prompt line: Give inhibition at 50 µM for the following compound: NC(=O)CCNC(=O)C(Cc1c(O)ccc2cc(Br)ccc12)C(=O)c1ccc(C(F)(F)F)cc1 (stereo not shown)
Response line: 93

Prompt line: Give inhibition at 50 µM for the following compound: O=C(NCCO)C(Cc1c(O)ccc2cc(Br)ccc12)C(=O)c1cccc(Br)c1 (stereo not shown)
Response line: 94

Prompt line: Give inhibition at 50 µM for the following compound: NC(=O)CCNC(=O)C(Cc1c(O)ccc2cc(Br)ccc12)C(=O)c1ccc(Br)cc1 (stereo not shown)
Response line: 98

Prompt line: Give inhibition at 50 µM for the following compound: COc1ccc2c(CC(C(N)=O)C(=O)c3cccc(Br)c3)c(O)ccc2c1 (stereo not shown)
Response line: 32

Prompt line: Give inhibition at 50 µM for the following compound: NC(=O)C(Cc1c(O)ccc2cc(Br)ccc12)C(=O)c1cccc(Br)c1 (stereo not shown)
Response line: 91

Prompt line: Give inhibition at 50 µM for the following compound: CNC(=O)CCNC(=O)C(Cc1c(O)ccc2cc(Br)ccc12)C(=O)c1ccc(C(F)(F)F)cc1 (stereo not shown)
Response line: 100

These entries and their values trace back to paper PMC7036909.
